Data provenance: patent US9326513B2

- System: Puccinia recondita f. sp. tritici
- EXPERIMENTAL DETAILS: Puccinia recondita f. sp. tritici / wheat / leaf disc preventative (brown rust)
- Format: in vivo
- STATED CONDITIONS: foliar, compared to untreated control leaf disks, read-out: disease control
RESULT TYPE: pest or weed control at 200 ppm

Enquiry: I would be grateful if you could share the reported pest or weed control at 200 ppm for CCN(C)/C=N/c1cc(Br)c(OC2CCN(C(C)=O)CC2)nc1C .
Return: ≥ 50%

Enquiry: I would be grateful if you could share the reported pest or weed control at 200 ppm for CCN(C)/C=N/c1cc(Br)c(OCc2ccc(C)nc2)nc1C .
Return: ≥ 50%

Enquiry: I would be grateful if you could share the reported pest or weed control at 200 ppm for CCN(C)/C=N/c1cc(Br)c(OC2C=C(C)CCC2)nc1C (stereo not shown) .
Return: ≥ 50%

Enquiry: I would be grateful if you could share the reported pest or weed control at 200 ppm for CCc1ccccc1C(C)Oc1nc(C)c(/N=C/N(C)CC)cc1Br (stereo not shown) .
Return: ≥ 50%

Enquiry: I would be grateful if you could share the reported pest or weed control at 200 ppm for C#Cc1cc(/N=C/N(C)CC)c(C)nc1O[C@H]1CC[C@H](C(C)C)CC1 .
Return: ≥ 50%

Enquiry: I would be grateful if you could share the reported pest or weed control at 200 ppm for Cc1nc(OCCCC(C)C)c(Br)cc1/N=C/N(C)C .
Return: ≥ 50%

Enquiry: I would be grateful if you could share the reported pest or weed control at 200 ppm for CCN(C)/C=N/c1cc(Br)c(OC2CCCC(Oc3ccccn3)C2)nc1C (stereo not shown) .
Return: ≥ 50%

Enquiry: I would be grateful if you could share the reported pest or weed control at 200 ppm for CCN(C)/C=N/c1cc(Br)c(OC(C)c2cc(F)cc(F)c2)nc1C (stereo not shown) .
Return: ≥ 50%

Enquiry: I would be grateful if you could share the reported pest or weed control at 200 ppm for C#Cc1cc(/N=C/N(C)CC)c(C)nc1O[C@H]1CC[C@@H](C(C)C)CC1 .
Return: ≥ 50%

Enquiry: I would be grateful if you could share the reported pest or weed control at 200 ppm for CCN(C)/C=N/c1cc(Br)c(OC2CCc3ccc(C(C)=O)cc3C2)nc1C (stereo not shown) .
Return: ≥ 50%

###

For each entry below, report its Activity value.
- Tested on: Fusarium graminearum and Fusarium culmorum
- Type: in vivo
- STATED CONDITIONS: solo, 200 g a.i./ha; wheat, 1 day preventive, 9 days after application
Kindly answer with a numeric value in %, unit omitted.

Enquiry: I would be grateful if you could share the reported Activity for CCN(C)/C=N/c1cc(Br)c(OCc2ccccc2C)nc1C .
Return: 3

Enquiry: I would be grateful if you could share the reported Activity for CCN(C)/C=N/c1cc(Br)c(O[C@H]2CC[C@@H](C(C)C)CC2)nc1C .
Return: 28

Enquiry: I would be grateful if you could share the reported Activity for CCN(C)/C=N/c1cc(Br)c(OC(C)c2cc(F)cc(F)c2)nc1C (stereo not shown) .
Return: 23

Enquiry: I would be grateful if you could share the reported Activity for CCN(C)/C=N/c1cc(Br)c(OC2Cc3ccccc3C2)nc1C .
Return: 17

###

- System: Botrytis cinerea
- EXPERIMENTAL DETAILS: Botrytis cinerea (gray mould), PDB microtiter plate, visual after 72 hrs
- Type: cell-based
- STATED CONDITIONS: Botrytis cinerea, alone, rate 0.03125 ppm; read-out: Activity (%)
RESULT TYPE: inhibition at 0.03125 ppm (%)
Kindly answer with a numeric value in %, unit omitted.

Enquiry: I would be grateful if you could share the reported inhibition at 0.03125 ppm for CCN(C)/C=N/c1cc(Br)c(OC2Cc3ccccc3C2)nc1C .
Return: 0

Enquiry: I would be grateful if you could share the reported inhibition at 0.03125 ppm for CCN(C)/C=N/c1cc(Br)c(OC(C)c2cc(F)cc(F)c2)nc1C (stereo not drawn) .
Return: 0

Enquiry: I would be grateful if you could share the reported inhibition at 0.03125 ppm for CC1(C)CCC(Cc2ccc(Cl)cc2)C1(O)Cn1cncn1 (stereo not drawn) .
Return: 0

Enquiry: I would be grateful if you could share the reported inhibition at 0.03125 ppm for CON(C(=O)c1cn(C)nc1C(F)F)C(C)Cc1c(Cl)cc(Cl)cc1Cl (stereo not drawn) [(VI), reference compound] .
Return: 70

Enquiry: I would be grateful if you could share the reported inhibition at 0.03125 ppm for CCN(C)/C=N/c1cc(Br)c(O[C@H]2CC[C@@H](C(C)C)CC2)nc1C .
Return: 0

Enquiry: I would be grateful if you could share the reported inhibition at 0.03125 ppm for Cn1cc(C(=O)Nc2cccc3c2C2CCC3C2=C(Cl)Cl)c(C(F)F)n1 (stereo not drawn) [(V), reference compound] .
Return: 50
